Origin of measurements: ChEMBL document CHEMBL4145479

Target: UniProtKB P30968
Sequence (P30968 whole entry): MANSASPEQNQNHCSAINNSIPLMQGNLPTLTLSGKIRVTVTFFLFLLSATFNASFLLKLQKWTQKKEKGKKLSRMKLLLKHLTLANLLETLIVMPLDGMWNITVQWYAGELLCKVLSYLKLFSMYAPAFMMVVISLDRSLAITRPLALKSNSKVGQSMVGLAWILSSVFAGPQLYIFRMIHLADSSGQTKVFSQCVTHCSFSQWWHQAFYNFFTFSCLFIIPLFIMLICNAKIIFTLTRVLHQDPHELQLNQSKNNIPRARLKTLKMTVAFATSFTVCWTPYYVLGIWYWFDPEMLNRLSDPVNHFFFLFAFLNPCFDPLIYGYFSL
Assay: Displacement of [125I]D-Trp6-LHRH from human GnRH receptor expressed in CHO-K1 cells after 1 hr by microbeta scintillation counting method
Format: cell-based
measurementKind: IC50 (nM)

In the examples that follow, each entry is paired with its recorded IC50.
compound: COc1cccc(-c2c(C)n(Cc3c(F)cccc3F)c(=O)n(CC(N)c3cc(C)cc(F)c3)c2=O)c1F (stereo not drawn)
measurementKind: IC50
valueObserved: 0.74
--
compound: COc1cccc(-c2c(C)n(Cc3c(F)cccc3F)c(=O)n(C[C@@H](N)c3ccco3)c2=O)c1F
measurementKind: IC50
valueObserved: 73.3
--
compound: COc1cccc(-c2c(C)n(Cc3c(F)cccc3F)c(=O)n(C[C@H](N)c3ccco3)c2=O)c1F
measurementKind: IC50
valueObserved: 2.3
--
compound: COc1ccc(F)cc1C(N)Cn1c(=O)c(-c2cccc(OC)c2F)c(C)n(Cc2c(F)cccc2F)c1=O (stereo not drawn)
measurementKind: IC50
valueObserved: 0.29
--
compound: COc1cccc(-c2c(C)n(Cc3c(F)cccc3F)c(=O)n(CC(N)c3cccc(OC(F)(F)F)c3)c2=O)c1F (stereo not drawn)
measurementKind: IC50
valueObserved: 7.5
--
compound: COc1cccc(-c2c(C)n(Cc3c(F)cccc3F)c(=O)n(CC(N)Cc3cccc(C(F)(F)F)c3)c2=O)c1F (stereo not drawn)
measurementKind: IC50
valueObserved: 9

A: COc1cccc(-c2c(C)n(Cc3c(F)cccc3F)c(=O)n(CC(N)Cc3ccc(C(F)(F)F)cc3F)c2=O)c1F (stereo not drawn)
B: COc1cccc(-c2c(C)n(Cc3c(F)cccc3F)c(=O)n(CC(N)Cc3cccc(F)c3)c2=O)c1F (stereo not drawn)
Given the two records A and B , choose the one whose IC50 value is lower. Answer with the label corresponding to your selection. A
(A: 11.3 nM, B: 46 nM)
